The measurements presented in this section are drawn from PubChem BioAssay AID1745844.

System: rodent lifetime carcinogenesis bioassay, tumor incidence TD50
Test: carcinogenic potency in animals, long-term in vivo studies, CPDB compilation (AID 1745844)
Settings: mouse; strain B6C3F1; females; in feed; site: liver; lesion: hepatocellular adenoma + hepatocellular carcinoma + neoplastic nodule; dosed 95 weeks; study length 99 weeks

| Smiles entry | Unit of measure | TD50 |
| --- | --- | --- |
| Cc1cc(Cl)ccc1N | mg/kg/day | 754 |

----------
System: rodent lifetime carcinogenesis bioassay, tumor incidence TD50
Assay: carcinogenic potency in animals, long-term in vivo studies, CPDB compilation (AID 1745844)
Conditions: rat; strain Fischer 344; females; in feed; site: liver; lesion: hepatocellular carcinoma + neoplastic nodule; dosed 103 weeks; study length 104 weeks
Calls of active or inactive are those of the source. The rule behind the calls is not given here.
List of TD50 values.

| Smiles entry | TD50 |
| --- | --- |
| O=[N+]([O-])c1cc(N(CCO)CCO)ccc1NCCO | 8150 mg/kg/day (inactive) |
| N=C1C=CC(=C(c2ccc(N)cc2)c2ccc(N)cc2)C=C1 | 189 mg/kg/day |
| Oc1ccc2ccccc2c1N=Nc1ccccc1 | 86.5 mg/kg/day |
| Brc1c(Br)c(Br)c(Oc2c(Br)c(Br)c(Br)c(Br)c2Br)c(Br)c1Br | 6580 mg/kg/day |

----------
Tested on: rodent lifetime carcinogenesis bioassay, tumor incidence TD50
Test: carcinogenic potency in animals, long-term in vivo studies, CPDB compilation (AID 1745844)
Settings: rat; strain Fischer 344; males; by gavage; site: any site (literature study); lesion: several types; types named in the paper; dosed 103 weeks; study length 103 weeks

| Smiles entry | Unit of measure | TD50 |
| --- | --- | --- |
| ClC=C(Cl)Cl | mg/kg/day | 2240 |

----------
Test system: rodent lifetime carcinogenesis bioassay, tumor incidence TD50
Assay: carcinogenic potency in animals, long-term in vivo studies, CPDB compilation (AID 1745844)
Details: mouse; strain Swiss; males; inhaled; site: extrahepatic tissue; lesion: angioma; dosed 30 weeks; study length 77 weeks

| Smiles entry | TD50 |
| --- | --- |
| C=CCl | 12300 mg/kg/day |

----------
Tested on: rodent lifetime carcinogenesis bioassay, tumor incidence TD50
Test: carcinogenic potency in animals, long-term in vivo studies, CPDB compilation (AID 1745844)
Details: rat; strain MRC-Wistar; males; by gavage; site: nasal cavity; lesion: one or several types; types not named; dosed 104 weeks; study length 104 weeks

| Smiles entry | Target system | TD50 |
| --- | --- | --- |
| CC(=O)CN(CC(C)=O)N=O | rodent lifetime carcinogenesis bioassay, tumor incidence TD50 | 1.56 mg/kg/day |

----------
Test system: rodent lifetime carcinogenesis bioassay, tumor incidence TD50
Experiment: carcinogenic potency in animals, long-term in vivo studies, CPDB compilation (AID 1745844)
Details: rat; strain Fischer 344; males; in drinking water; site: upper gastrointestinal tract; lesion: several types; types named in the paper; dosed 32 weeks; study length 127 weeks

| Smiles entry | TD50 |
| --- | --- |
| CN(CCc1ccccc1)N=O | 0.00788 mg/kg/day |

----------
Test system: rodent lifetime carcinogenesis bioassay, tumor incidence TD50
Experiment: carcinogenic potency in animals, long-term in vivo studies, CPDB compilation (AID 1745844)
Conditions: rat; strain Not specified; males; in feed; site: any site (literature study); lesion: several types; types named in the paper; dosed 64 weeks; study length 64 weeks
The source made the active and inactive calls. No rule for the calls is given here.

| Smiles entry | TD50 |
| --- | --- |
| O=S(=O)(O)c1ccc(N=Nc2c(O)ccc3cc(S(=O)(=O)O)ccc23)cc1 | 14000 mg/kg/day (inactive) |

----------
Tested on: rodent lifetime carcinogenesis bioassay, tumor incidence TD50
Test: carcinogenic potency in animals, long-term in vivo studies, CPDB compilation (AID 1745844)
Settings: rat; strain Charles River CD (Sprague-Dawley); males; inhaled; site: liver; lesion: hepatocellular carcinoma; dosed 43 weeks; study length 95 weeks

| Smiles entry | Unit of measure | TD50 |
| --- | --- | --- |
| C=CCl | mg/kg/day | 265 |

----------
Test system: rodent lifetime carcinogenesis bioassay, tumor incidence TD50
Experiment: carcinogenic potency in animals, long-term in vivo studies, CPDB compilation (AID 1745844)
Conditions: mouse; strain B6C3F1; males; inhaled; site: heart; lesion: hemangiosarcoma; dosed 40 weeks; study length 105 weeks

| Smiles entry | TD50 / mg/kg/day |
| --- | --- |
| C=CC(=C)C | 32900 |

----------
# Lookup of reported TD50 keyed by entry
Tested on: rodent lifetime carcinogenesis bioassay, tumor incidence TD50
Assay: carcinogenic potency in animals, long-term in vivo studies, CPDB compilation (AID 1745844)
Conditions: mouse; strain B6C3F1; females; in feed; site: any site (literature study); lesion: several types; types named in the paper; dosed 104 weeks; study length 105 weeks
The source made the active and inactive calls. No rule for the calls is given here.

| Smiles entry | TD50 |
| --- | --- |
| O=Nc1ccc(NO)cc1 | 6710 mg/kg/day (inactive) |
| O=[N+]([O-])c1cc(N(CCO)CCO)ccc1NCCO | 42000 mg/kg/day (inactive) |
| C[C@H]1CCCC(=O)CCC/C=C/c2cc(O)cc(O)c2C(=O)O1 | 17.9 mg/kg/day |
| CN(C)NC(=O)CCC(=O)O | 56400 mg/kg/day (inactive) |

----------
System: rodent lifetime carcinogenesis bioassay, tumor incidence TD50
Assay: carcinogenic potency in animals, long-term in vivo studies, CPDB compilation (AID 1745844)
Conditions: rat; strain Fischer 344; females; by gavage; site: clitoral gland + forestomach + mammary gland + palate + pharynx + tongue + Zymbal's gland; lesion: adenoma + adenoma, bilateral + carcinoma + carcinoma, bilateral + squamous-cell carcinoma + squamous-cell papilloma + adenocarcinoma; dosed 91 weeks; study length 105 weeks

| Smiles entry | Target system | TD50 [mg/kg/day] |
| --- | --- | --- |
| ClCC(Cl)CCl | rodent lifetime carcinogenesis bioassay, tumor incidence TD50 | 1.07 |

----------
System: rodent lifetime carcinogenesis bioassay, tumor incidence TD50
Assay: carcinogenic potency in animals, long-term in vivo studies, CPDB compilation (AID 1745844)
Settings: rat; strain F344/DuCrj; males; in feed; site: forestomach; lesion: papilloma; dosed 104 weeks; study length 104 weeks

| Smiles entry | Unit of measure | TD50 |
| --- | --- | --- |
| Oc1ccccc1O | mg/kg/day | 2960 |
| Oc1ccc2c(c1)OCO2 | mg/kg/day | 1350 |
| O=C(O)C=Cc1ccc(O)c(O)c1 | mg/kg/day | 377 |

----------
Tested on: rodent lifetime carcinogenesis bioassay, tumor incidence TD50
Assay: carcinogenic potency in animals, long-term in vivo studies, CPDB compilation (AID 1745844)
Details: mouse; strain CD-1 HaM/ICR; males; in feed; site: liver; lesion: several types; types named in the paper; dosed 68 weeks; study length 90 weeks
Active and inactive are the calls of the source. How the calls were made is not given here.
Measured attribute: TD50

| Smiles entry | Result |
| --- | --- |
| Cc1ccccc1N | 1400 mg/kg/day (inactive) |

----------
Tested on: rodent lifetime carcinogenesis bioassay, tumor incidence TD50
Assay: carcinogenic potency in animals, long-term in vivo studies, CPDB compilation (AID 1745844)
Settings: mouse; strain B6C3F1; males; by gavage; site: liver; lesion: hepatocellular adenoma + hepatocellular carcinoma; dosed 104 weeks; study length 105 weeks
Measured attribute: TD50

| Smiles entry | Result |
| --- | --- |
| c1ccoc1 | 3.6 mg/kg/day |
| Nc1ccc(NCCO)c([N+](=O)[O-])c1 | 427 mg/kg/day |

----------
System: rodent lifetime carcinogenesis bioassay, tumor incidence TD50
Experiment: carcinogenic potency in animals, long-term in vivo studies, CPDB compilation (AID 1745844)
Settings: rat; strain Sprague-Dawley; females; in feed; site: all sites; lesion: lymphoblastic lymphoma; dosed 40 weeks; study length 59 weeks
Measured attribute: TD50

| Smiles entry | Result |
| --- | --- |
| CC(=O)Nc1nnc(-c2ccc([N+](=O)[O-])o2)s1 | 111 mg/kg/day |

----------
Test system: rodent lifetime carcinogenesis bioassay, tumor incidence TD50
Assay: carcinogenic potency in animals, long-term in vivo studies, CPDB compilation (AID 1745844)
Conditions: rat; strain Donryu; males; in feed; site: liver; lesion: several types; types named in the paper; dosed 40 weeks; study length 80 weeks

| Smiles entry | TD50 |
| --- | --- |
| CC(N)=S | 11.5 mg/kg/day |

----------
Tested on: rodent lifetime carcinogenesis bioassay, tumor incidence TD50
Experiment: carcinogenic potency in animals, long-term in vivo studies, CPDB compilation (AID 1745844)
Settings: mouse; strain B6C3F1; males; in feed; site: any site (literature study); lesion: several types; types named in the paper; dosed 78 weeks; study length 98 weeks
Measured attribute: TD50

| Smiles entry | Result |
| --- | --- |
| CCOc1ccc(NC(C)=O)cc1[N+](=O)[O-] | 3490 mg/kg/day |
